Test: Aqueous partition value of a dye (water/1-octanol partitioning)
Assay type: physicochemical
Conditions: deionized water / 1-octanol 10.0 mL each, absorbance at dye λmax, (Af/Ai)×100%
OBSERVED PROPERTY: % Dye in Water Layer (Aqueous Partition Value) (%)

Record excerpt, results attached:
COMPOUND: CC[N+](CC)(CC)CCOCCOCCN(CCOCC[N+](CC)(CC)CC)c1ccc(/N=N/c2sc(C#N)c(C)c2C#N)c(C)c1 [Example 35]
UNIT OF MEASURE: %
READING: 66
--
COMPOUND: CCN(CCOCCOCCOCCOCCn1cc[n+](C)c1)c1ccc(/N=N/c2sc(C#N)c(C)c2C#N)c(C)c1 [Example 13]
UNIT OF MEASURE: %
READING: 20
--
COMPOUND: CCN(CC[N+](CC)(CC)CC)c1ccc(/N=N/c2sc(C#N)c(C)c2C#N)c(C)c1 [Example 7]
UNIT OF MEASURE: %
READING: 15
--
COMPOUND: CC[N+](CC)(CC)CCN(CC[N+](CC)(CC)CC)c1ccc(/N=N/c2sc(C#N)c(C)c2C#N)c(C)c1 [Example 36]
UNIT OF MEASURE: %
READING: 94
--
COMPOUND: COc1cc(/N=N/c2sc(C#N)c(C)c2C#N)c(C)cc1N(CCn1cc[n+](C)c1)CCn1cc[n+](C)c1 [Example 1]
UNIT OF MEASURE: %
READING: 97

1: CC[N+](CC)(CC)CCOCCOCCN(CCOCC[N+](CC)(CC)CC)c1cc(OC)c(/N=N/c2sc(C#N)c(C)c2C#N)cc1OC [Example 19]
2: CCN(CCOCCOCCOCCOCC[N+](CC)(CC)CC)c1ccc(/N=N/c2sc(C#N)c(C)c2C#N)c(C)c1 [Example 12]
Given 1 and 2 , report the one with the higher recorded % Dye in Water Layer (Aqueous Partition Value). Answer by stating the label of the chosen item.
1

A: CC[N+](CC)(CC)CCOCCOCCN(CCOCC[N+](CC)(CC)CC)c1cc(C)c(/N=N/c2sc(C#N)c(C)c2C#N)cc1OC [Example 18]
B: COc1cc(/N=N/c2sc(C#N)c(C)c2C#N)c(C)cc1N(CCOCCOCC[N+](C)(C)CCO)CCOCC[N+](C)(C)CCO [Example 21]
Could you determine which record has the numerically smaller % Dye in Water Layer (Aqueous Partition Value)? Candidates: A and B Answer by stating the label of the chosen item.
A

I: COc1cc(/N=N/c2sc(C#N)c(C)c2C#N)c(C)cc1N(CCOCCOCC[N+](CCO)(CCO)CCO)CCOCC[N+](CCO)(CCO)CCO [Example 22]
II: Cc1cc(N(CCn2cc[n+](C)c2)CCn2cc[n+](C)c2)ccc1/N=N/c1sc(C#N)c(C)c1C#N [Example 2]
Given I and II , report the one with the higher recorded % Dye in Water Layer (Aqueous Partition Value). Answer by stating the label of the chosen item.
II
